assay: Cmax in Sprague-Dawley rat at 3 mg/kg, po
Type: ADME, organism-based
Set-up: dose 3 mg/kg, route oral
experimental-context: in vivo
observation-type: Cmax (nM)
Reply with just the number (in nM).

Below, 2 compounds whose answers are already recorded.
smiles-text	observation-type	result
O=c1[nH]c(N2CCC3(CC2)CN(CCO)c2cc(F)cc(F)c23)nc2c1CCCC2	Cmax	2280
CS(=O)(=O)c1ccc(-c2nnc(/C=C/c3nnc(-c4ccc(C#N)cc4)o3)n2-c2ccccc2Cl)nc1	Cmax	230

# evaluate next
*Q* If you can, please state the reported Cmax value of COc1ccccc1N1CCN(c2nc3c(c(=O)[nH]2)CCCC3)CC1 .
*A* 120

Where do the numbers come from? From ChEMBL document CHEMBL4387706.
